# assayed_system: T1, Mss116 D2, MBP-tagged (Saccharomyces cerevisiae? (paper: yeast), UniProt P15424 342-597)
# T1 sequence: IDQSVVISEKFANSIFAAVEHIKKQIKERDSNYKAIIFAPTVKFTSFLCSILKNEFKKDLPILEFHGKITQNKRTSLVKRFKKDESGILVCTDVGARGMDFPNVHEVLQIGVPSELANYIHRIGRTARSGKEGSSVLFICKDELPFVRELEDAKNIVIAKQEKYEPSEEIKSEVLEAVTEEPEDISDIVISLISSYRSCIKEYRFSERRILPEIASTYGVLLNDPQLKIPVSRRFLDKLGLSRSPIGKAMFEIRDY
# assay_name: competition; unlabeled B-DNA displacing 250 nM 5' FAM-dsRNA from 500 nM MBP-D2; 20 mM Tris-HCl pH 7.5, 100 mM KCl, 10% glycerol, 1 mM DTT, 5 mM MgCl2, 0.1 mg/ml BSA, 22 C, >=1 h; EMSA gels 6% at 4 C in 0.5x TBE; SEC with 200 mM KCl, no BSA
# settings: protein: recombinant; tags: N-terminal MBP (MalE); self-complementary, 2 strand copies, 12 bp
pKi: −log10 of the molar value.

binder: 12-bp B-DNA duplex, unlabeled (dsDNA) DNA 1: GCGCGCGCGCGC DNA 2: GCGCGCGCGCGC
pKi: 5.77
